# Lookup of reported Reaction keyed by entry
System: peptide amidase from orange flavedo
ASSAY EXPLANATION: Cleavage of amides of amino acids (TLC)
Assay type: biochemical
Design: scale not given here
CONDITION PARAMETERS: 50 μg/ml; 10 mM substrate; 24 h; 0.05M KPi, pH 7.5; * = slight traces

Take a look at these entries with their results.
# CHEMICAL SMILES, TESTED ON, Reaction
rows = [
    ("CC(C)C[C@@H](N)C(N)=O", "peptide amidase from orange flavedo", 0),
    ("NC(=O)[C@@H](N)CO", "peptide amidase from orange flavedo", 0),
    ("NC(=O)[C@@H](N)Cc1cnc[nH]1", "peptide amidase from orange flavedo", 0),
    ("NC(=O)[C@@H](N)Cc1ccccc1", "peptide amidase from orange flavedo", 0),
    ("CC(C)[C@H](N)C(N)=O", "peptide amidase from orange flavedo", 0),
    ("CSCC[C@H](N)C(N)=O", "peptide amidase from orange flavedo", 0),
    ("NC(=O)[C@H](N)Cc1ccccc1", "peptide amidase from orange flavedo", 0),
    ("C[C@@H](O)[C@H](N)C(N)=O", "peptide amidase from orange flavedo", 0),
]

Find the measured Reaction of NCCCC[C@H](N)C(N)=O and report it.
0

Find the measured Reaction of NC(=O)[C@@H](N)Cc1ccc(O)cc1 and report it.
0

Find the measured Reaction of CC[C@H](C)[C@H](N)C(N)=O and report it.
0

Find the measured Reaction of CC(C)C[C@H](N)C(N)=O and report it.
0

---

Test system: peptide amidase
ASSAY EXPLANATION: Enzymatic reaction of peptide amides with a chain length of greater than three amino acids
Format: biochemical, orange
CONDITION PARAMETERS: peptide amidase, 6 h, 10000 µM, pH 7
Peptide text beside a SMILES is read from it. * marks the point of attachment. Cbz = O=C(OCc1ccccc1)*
ENDPOINT LABEL: Yield (%/6 h)
Enter your answer as a number in %/6 h; do not include the unit.

Find the measured Yield of CC(C)C[C@H](NC(=O)CNC(=O)CNC(=O)OCc1ccccc1)C(N)=O [Z--Gly--Gly--Leu--NH2] (Cbz-Gly-Gly-Leu-NH2) and report it.
100

Find the measured Yield of CC(C)C[C@H](NC(=O)CNC(c1ccccc1)(c1ccccc1)c1ccccc1)C(=O)N[C@H](C(N)=O)C(C)C and report it.
100

Find the measured Yield of N=C(N)NCCC[C@H](NC(=O)[C@@H]1CCCN1C(=O)OCc1ccccc1)C(=O)NCC(N)=O [Z--Pro--Arg--Gly--NH2] (Cbz-Pro-Arg-Gly-NH2) and report it.
100

---

# Lookup of reported Spec. Activity keyed by entry
System: peptide amidase
ASSAY EXPLANATION: Deamidation of N-terminal protected amino acid amides
Format: biochemical, orange
CONDITION PARAMETERS: 10 mM substrate; 50 μg.ml peptide amidase; 50 mM tris/HCl; pH 7.0; 30° C.
Enter your answer as a number in U/mg; do not include the unit.

Take a look at these entries with their results.
# CHEMICAL SMILES, TESTED ON, Spec. Activity, U/mg
records = [
    ("NC(=O)[C@H](Cc1c[nH]c2ccccc12)NC(=O)OCc1ccccc1", "peptide amidase", 0.37),
    ("CC(=O)N[C@@H](Cc1c[nH]c2ccccc12)C(N)=O", "peptide amidase", 2.32),
    ("N=C(N)NCCC[C@H](NC(=O)c1ccccc1)C(N)=O", "peptide amidase", 4.39),
]

Find the measured Spec. Activity of NC(=O)[C@H](Cc1ccc(O)cc1)NC(=O)c1ccccc1 and report it.
6.34

Reference source: patent US5369016A
